Cited source: ChEMBL document CHEMBL1133892

# assay_target: Prostaglandin E2 receptor EP4 subtype (Mus musculus, UniProt P32240)
# Sequence (P32240 whole entry): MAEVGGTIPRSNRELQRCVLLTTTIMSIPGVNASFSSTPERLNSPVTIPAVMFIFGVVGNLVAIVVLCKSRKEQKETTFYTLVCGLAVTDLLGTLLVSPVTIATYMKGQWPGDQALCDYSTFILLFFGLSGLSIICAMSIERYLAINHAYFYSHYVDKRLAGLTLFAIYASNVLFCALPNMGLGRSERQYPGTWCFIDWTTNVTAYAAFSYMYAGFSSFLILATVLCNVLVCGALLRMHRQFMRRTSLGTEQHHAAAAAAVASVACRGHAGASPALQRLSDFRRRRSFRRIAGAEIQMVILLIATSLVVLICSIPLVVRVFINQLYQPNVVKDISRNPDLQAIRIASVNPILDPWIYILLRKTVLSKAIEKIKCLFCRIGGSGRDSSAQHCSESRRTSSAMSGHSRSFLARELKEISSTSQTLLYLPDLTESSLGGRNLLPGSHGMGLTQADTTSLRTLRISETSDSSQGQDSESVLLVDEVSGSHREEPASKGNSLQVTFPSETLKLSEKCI
# test_method_notes: Binding affinity towards mouse Prostanoid EP4 receptor in CHO cells.
recorded_metric: Ki

Inquiry: Entry CCCCCC(O)/C=C/[C@H]1[C@H](O)CC(=O)[C@@H]1CCCCCCC(=O)O (single isomer, unassigned) [ALPROSTADIL] : reported Ki = ?
Reply text: 0.0033 µM

Inquiry: Now consider CCCC1([C@@H](O)C/C=C/C2[C@H](O)CC(=O)[C@@H]2CC#CCCCC(=O)O)CCC1 (stereo partly drawn) .
Reply text: > 10 µM

Inquiry: Now consider `CCCCCC1([C@@H](O)C/C=C/[C@H]2[C@H](O)CC(=O)[C@@H]2C/C=C\CCCC(=O)O)CCC1` .
Reply text: 2.1 µM

Inquiry: Now consider `CCCCC1([C@@H](O)C/C=C/[C@H]2[C@H](O)CC(=O)[C@@H]2C/C=C\CCCC(=O)O)CCC1` .
Reply text: > 10 µM

Inquiry: Now consider CCCC1([C@@H](O)C/C=C/C2[C@H](O)CC(=O)[C@@H]2CCCCCCC(=O)O)CCC1 (stereo partly drawn) .
Reply text: > 10 µM

Inquiry: Now consider `CCC1([C@@H](O)C/C=C/[C@@H]2[C@@H](C/C=C\CCCC(=O)O)[C@H](Cl)C[C@H]2O)CCC1` .
Reply text: > 10 µM

Inquiry: Now consider CCCC1([C@@H](O)C/C=C/C2[C@H](O)CC(=O)[C@@H]2CCc2ccc(C(=O)O)cc2)CCC1 (stereo partly drawn) .
Reply text: > 10 µM

Inquiry: Now consider `CCC1([C@@H](O)C/C=C/[C@@H]2[C@@H](C/C=C\CCCC(=O)O)CC[C@H]2O)CCC1` .
Reply text: > 10 µM
